- system name: T1, cMetECDHis (human, UniProt P08581 25-932, limits assumed, biotinylated in the cross-block ELISA of Example 17)
- T1 construct: Expressed in HEK-293F cells; also called soluble cMetECDHis; biotinylated cMetECDHis
- assay overview: cross-block ELISA; competitor 024
parameter: residual binding, % of no competitor (%)
# number only, unit % dropped from output

[[record]]
binder = "IgG1-1016-058 (antibody, V domains shown, also called IgG1-058; TH1016-058) VH: EVQLVESGGGLVKPGGSLKLSCAASGFTFSDYYMYWVRQTPEKRLEWVATISDDGSYTYYPDSVKGRFTISRDNAKNNLYLQMSSLKSEDTAMYYCAREGLYYYGSGSYYNQDYWGQGTLVTVSS VL: AIQLTQSPSSLSASVGDRVTITCRASQGLSSALAWYRQKPGKAPKLLIYDASSLESGVPSRFSGSGSGTDFTLTISSLQPEDFATYYCQQFTSYPQITFGQGTRLEIK"
parameter = "residual binding, % of no competitor"
output_unit = "%"
observed_value = 109


## Input Given the binder anti-c-Met HuMab 045 (IgG1) (antibody, V domains shown, also called TH1016-045; PC1016-045) VH: EVQLLESGGGLVQPGGSLRLSCAASGFTFSSYAMSWVRQAPGKGLEWVSVISGSGGITYYADSVKGRFTISRDNSKNTLYLQMNSLRAEDTAVYYCARDRGWGSDYWGQGTLVTVSS VL: EIVLTQSPATLSLSPGERATLSCRASQSVSSYLAWYQQKPGQAPRLLIYDASNRATGIPARFSGSGSGTDFTLTISSLEPEDFAVYYCQQRSNWPFTFGPGTKVDIK , write its reported residual binding, % of no competitor.
## Output 102
